Dear all, this message contains pIC50 results, target or system SARS-CoV-2 Main Protease (SARS-CoV-2).
pIC50: −log10 of the molar value.

// worked examples, pIC50 included
- molecule: "Cc1cc(C)[n+](C)c(C#N)n1"
  readout-label: "pIC50"
  observed-result: "< 4.00"
- molecule: "CCN1CCCC1C1CCCN1C(=O)CCc1c[nH]c2ccccc12 (stereo unspecified)"
  readout-label: "pIC50"
  observed-result: "< 4.00"
- molecule: "Cc1ccncc1NC(=O)CN1CCCCC1"
  readout-label: "pIC50"
  observed-result: "< 4.00"
- molecule: "CN1C(=O)CCc2cc(N(C(=O)c3cnc[nH]3)C(C(=O)NCCc3cccc(F)c3)c3cccnc3)ccc21 (stereo unspecified)"
  readout-label: "pIC50"
  observed-result: "< 4.00"
- molecule: "CS(=O)(=O)c1ccccc1C(=O)N1CCC(C2CCNC2)CC1 (stereo unspecified)"
  readout-label: "pIC50"
  observed-result: "< 4.00"

# value of pIC50, SARS-CoV-2 Main Protease (SARS-CoV-2), item O=C(Cn1nnc2ccccc21)Nc1cccc(Cl)c1 = < 4.00

# value of pIC50, SARS-CoV-2 Main Protease (SARS-CoV-2), item O=C(Nc1cncc2ccccc12)C1CCOc2c(O)ccc(Cl)c21 (stereo unspecified) = < 4.00

# value of pIC50, SARS-CoV-2 Main Protease (SARS-CoV-2), item O=C(NCCOc1ccccc1)c1cc(=O)[nH]c2ccccc12 = < 4.00

# value of pIC50, SARS-CoV-2 Main Protease (SARS-CoV-2), item CC(=O)N(CC(=O)Nc1ccc(F)c(Cl)c1)c1cccc(C(F)(F)F)c1 = < 4.00

# value of pIC50, SARS-CoV-2 Main Protease (SARS-CoV-2), item Cc1cc(C(F)(F)F)nc2c1c(N)nn2C(=O)C1CCOc2ccc(Cl)cc21 (stereo unspecified) = < 4.00

# value of pIC50, SARS-CoV-2 Main Protease (SARS-CoV-2), item NS(=O)(=O)c1cc(CN2CCN(C(c3ccccc3)c3ccccc3)CC2)co1 = < 4.00
